B1: library; a variant is named by its letters at N, in order (parent)
chain: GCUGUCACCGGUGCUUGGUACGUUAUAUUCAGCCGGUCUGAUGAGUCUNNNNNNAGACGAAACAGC

# Variants of: B1
# assay text: normalized RNA/DNA level without ligand (relative to sTRSVctl = 100) (log10 (% of sTRSVctl)); HEK293T overexpressing SLC46A1; higher = less ribozyme self-cleavage, higher mRNA level
# condition: without (6R,S)-folinic acid; ligand present: no
Returns YES if the recorded normalized RNA/DNA level without ligand (log10) is greater than or equal to 2, and NO otherwise.

Prompt: Please check the record `CCUCAG` and state if its normalized RNA/DNA level without ligand (log10) is at or above 2.
Response: NO

Prompt: Please check the record `ACCUCC` and state if its normalized RNA/DNA level without ligand (log10) is at or above 2.
Response: YES

Prompt: Please check the record `UAGGGG` and state if its normalized RNA/DNA level without ligand (log10) is at or above 2.
Response: NO

Prompt: Please check the record `CGACAA` and state if its normalized RNA/DNA level without ligand (log10) is at or above 2.
Response: NO

Prompt: Please check the record `CACGAG` and state if its normalized RNA/DNA level without ligand (log10) is at or above 2.
Response: NO
